- Target desc: PCSK9 (Homo sapiens)
- Sequence (Q8NBP7 153-692): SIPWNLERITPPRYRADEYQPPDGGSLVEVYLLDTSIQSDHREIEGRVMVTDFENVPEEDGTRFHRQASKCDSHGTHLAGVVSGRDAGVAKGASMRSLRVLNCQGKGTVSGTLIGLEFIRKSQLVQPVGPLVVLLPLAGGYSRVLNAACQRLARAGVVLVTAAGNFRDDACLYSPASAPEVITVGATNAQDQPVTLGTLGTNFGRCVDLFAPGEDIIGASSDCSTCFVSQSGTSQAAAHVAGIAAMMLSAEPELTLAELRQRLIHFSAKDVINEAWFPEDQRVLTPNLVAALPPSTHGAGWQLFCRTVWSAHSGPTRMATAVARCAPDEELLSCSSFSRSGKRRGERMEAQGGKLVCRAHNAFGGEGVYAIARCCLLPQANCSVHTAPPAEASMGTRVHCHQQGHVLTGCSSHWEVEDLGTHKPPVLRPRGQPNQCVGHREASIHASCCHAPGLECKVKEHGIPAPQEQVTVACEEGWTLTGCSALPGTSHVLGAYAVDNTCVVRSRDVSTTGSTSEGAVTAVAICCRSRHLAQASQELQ
- Protocol summary: BODIPY-LDL uptake assay in HepG2 cells
- Assay type: cell-based
- Condition summary: 10 μM test compound, 5 μg/ml PCSK9, BODIPY-LDL
Test readout: % increase in LDL Uptake (%)
// note: answer is a bare numeric in %

The examples below pair each entry with its known result.
> print(dat)
                                   molecule           target.desc  number
1  CC(C)(C)OC(=O)N1CCC(O)(c2ccc(C(=O)N3CCC(c4ccc(C(F)(F)F)cc4)CC3)cc2)C1 (stereo not shown) [Example 151]  PCSK9 (Homo sapiens)       0
2  COC1(c2ccc(C(=O)N3CC4CN(c5ccc(C(F)(F)F)cc5)CC4C3)cc2)COC1 (stereo not shown) [Example 57]  PCSK9 (Homo sapiens)      32

**Q:** Provide the reported % increase in LDL Uptake (system: PCSK9 (Homo sapiens)) for O=C(c1ccc(C2(O)COC2)cc1)N1CC2CN(c3ccc(C(F)(F)F)cc3)CC2C1 (stereo not shown) [Example 11]
**A:** 59

**Q:** Provide the reported % increase in LDL Uptake (system: PCSK9 (Homo sapiens)) for COC1(c2ccc(C(=O)N3CCC(c4ccc(C(F)(F)F)cc4)CC3)cc2)CCNCC1 [Example 144]
**A:** 16

====

Overview of recorded % increase in LDL Uptake for various compounds
- Target desc: PCSK9 (Homo sapiens)
- Protocol summary: BODIPY-LDL uptake assay in HepG2 cells
- Assay type: cell-based
- Condition summary: 10 μM test compound, 5 μg/ml PCSK9, BODIPY-LDL
// note: answer is a bare numeric in %

The examples below pair each entry with its known result.
> print(dat)
                                   compound  endpoint.unit  number
1  COC1(c2ccc(NC(=O)N3CC4CN(c5ccc(C(F)(F)F)cc5)CC4C3)cc2)COC1 (centres unmarked) [Example 74]              %      42
2  O=C(c1ccc(C2(O)COC2)cc1)N1CCC(c2ccc(O)cc2)CC1 [Example 63]              %      18
3  [2H]C([2H])([2H])OC1(c2ccc(C(=O)N3CC4CN(c5ccc(C(F)(F)F)cc5)CC4C3)cc2)COC1 (centres unmarked) [Example 134]              %      28
4  CCSCCOC1(c2ccc(C(=O)N3CCC(c4ccc(C(F)(F)F)cc4)CC3)cc2)COC1 [Example 189]              %     116

**Q:** Determine from records and report % increase in LDL Uptake for O=C(c1ccc(C2(O)CSC2)cc1)N1CC2CN(c3ccc(C(F)(F)F)cc3)CC2C1 (centres unmarked) [Example 146]
**A:** 212

**Q:** Determine from records and report % increase in LDL Uptake for OC1(c2ccc(N3CCC(c4ccc(C(F)(F)F)cc4)CC3)cc2)COC1 [Example 8]
**A:** 73

**Q:** Determine from records and report % increase in LDL Uptake for O=C(c1ccc(C2(O)COC2)cc1)N1CCC2(CCN(c3ccc(C(F)(F)F)cc3)CC2)C1 [Example 186]
**A:** 73

**Q:** Determine from records and report % increase in LDL Uptake for O=C(Nc1ccc(C2(O)COC2)cc1)C1CCN(c2ccc(C(F)(F)F)cc2)CC1 [Example 3]
**A:** 39
